Tested on: ZR-75-30 (human breast cancer cell)
test-details: MTT assay, in vitro inhibition of proliferation of human tumor cells
Format: cell-based
condition: inhibition at 100 μg/ml, 72 h
Label no (0) if ZR-75-30 100 μg/ml IC % falls below 90%; label yes (1) in every other case.

[[record]]
compound = "Nc1ccn([C@@H]2O[C@H](CO)[C@@H](O)C2(F)F)c(=O)n1"
category = "yes (1)"

[[record]]
compound = "CCCC(CCC)C(=O)Nc1ccn([C@@H]2O[C@H](CO)[C@@H](O)C2(F)F)c(=O)n1 [LY-2334737, N4-valproyl gemcitabine, reference compound]"
category = "no (0)"

[[record]]
compound = "CCCCCCCC(=O)Nc1ccn([C@@H]2O[C@H](CO)C(O)C2(F)F)c(=O)n1 (stereo partly drawn) [SYN-165, N^4-n-octanoyl Gemcitabine]"
category = "yes (1)"

